Test system: Adriamycin resistant strain 2780 AD cells of human ovarian cancer A2780 cells
Experiment: Potentiating effect on incorporation of 3H-vincristine into adriamycin-resistant cancer cells
Assay type: cell-based
Settings: Homo sapiens, 2780AD, 2 h, compound 1 μg/ml, 20 nM 3H-vincristine, control = 100, read-out: 3H-vincristine accumulation
measured.attribute: activity at 1 µg/mL (%)
Report only the number, with the unit % understood.

*Q* activity at 1 µg/mL of OC(COc1cccc2nc(C(F)(F)F)cc(C(F)(F)F)c12)CN1CCN(C2c3ccccc3CCc3ccccc32)CC1 (centres unmarked) [Example 76] on Adriamycin resistant strain 2780 AD cells of human ovarian cancer A2780 cells?
*A* 130

*Q* activity at 1 µg/mL of CN(CC(O)CN1CCN(C(c2ccccc2)c2ccccc2)CC1)c1cccc2ncccc12 (centres unmarked) [Example 30] on Adriamycin resistant strain 2780 AD cells of human ovarian cancer A2780 cells?
*A* 597

*Q* activity at 1 µg/mL of OC(CNCC(c1ccccc1)c1ccccc1)COc1cccc2ncccc12 (centres unmarked) [Example 70] on Adriamycin resistant strain 2780 AD cells of human ovarian cancer A2780 cells?
*A* 252

*Q* activity at 1 µg/mL of OC(COc1ccc(Cl)c2ncccc12)CN1CCN(C(c2ccccc2)c2ccccc2)CC1 (centres unmarked) [Example 29] on Adriamycin resistant strain 2780 AD cells of human ovarian cancer A2780 cells?
*A* 246

*Q* activity at 1 µg/mL of OC(COc1cccc2ncccc12)CN1CCN(C(c2ccc(F)cc2)c2ccc(F)cc2)CC1 (centres unmarked) [Example 57] on Adriamycin resistant strain 2780 AD cells of human ovarian cancer A2780 cells?
*A* 572

*Q* activity at 1 µg/mL of OC(CNCCNC1c2ccccc2CCc2ccccc21)COc1cccc2ncccc12 (centres unmarked) [Example 62] on Adriamycin resistant strain 2780 AD cells of human ovarian cancer A2780 cells?
*A* 525

*Q* activity at 1 µg/mL of Cc1cc(C(F)(F)F)nc2cccc(OCC(O)CN3CCN(C(c4ccccc4)c4ccccc4)CC3)c12 (centres unmarked) [Example 56] on Adriamycin resistant strain 2780 AD cells of human ovarian cancer A2780 cells?
*A* 321

*Q* activity at 1 µg/mL of OC(COc1cccc2nc(Cl)ccc12)CN1CCN(C(c2ccccc2)c2ccccc2)CC1 (centres unmarked) [Example 41] on Adriamycin resistant strain 2780 AD cells of human ovarian cancer A2780 cells?
*A* 584

====

Tested on: Adriamycin resistant strain 2780 AD cells of human ovarian cancer A2780 cells
Assay: Potentiating effect on incorporation of 3H-vincristine into adriamycin-resistant cancer cells
Format: cell-based
Conditions: Homo sapiens, 2780AD, 2 h, compound 1 μg/ml, 20 nM 3H-vincristine, control = 100, read-out: 3H-vincristine accumulation
measured.attribute: activity at 1 µg/mL (%)
Report only the number, with the unit % understood.

*Q* Fill blank: measured activity at 1 µg/mL of the compound Cc1cc(C)c2c(OCC(O)CN(C)CCN(C)C3c4ccccc4CCc4ccccc43)cccc2n1 (stereo not shown) [Example 66] is ____.
*A* 488

*Q* Fill blank: measured activity at 1 µg/mL of the compound OC(COc1ccnc2ccccc12)CN1CCN(C(c2ccccc2)c2ccccc2)CC1 (stereo not shown) [Example 46] is ____.
*A* 142

*Q* Fill blank: measured activity at 1 µg/mL of the compound CN(C(=O)CCN1CCN(C(c2ccccc2)c2ccccc2)CC1)c1cccc2ncccc12 [Example 37] is ____.
*A* 549

*Q* Fill blank: measured activity at 1 µg/mL of the compound O=C(CCN1CCN(C2c3ccccc3CCc3ccccc32)CC1)Nc1cccc2ncccc12 [Example 36] is ____.
*A* 821

*Q* Fill blank: measured activity at 1 µg/mL of the compound Cc1cc(C)c2c(OCC(O)CN3CCC(=C(c4ccccc4)c4ccccc4)CC3)cccc2n1 (stereo not shown) [Example 67] is ____.
*A* 730

*Q* Fill blank: measured activity at 1 µg/mL of the compound CSc1ccc2c(OCC(O)CN3CCN(C4c5ccccc5CCc5ccccc54)CC3)cccc2n1 (stereo not shown) [Example 64] is ____.
*A* 425

*Q* Fill blank: measured activity at 1 µg/mL of the compound CC(=O)N(CC(O)CN1CCN(C(c2ccccc2)c2ccccc2)CC1)c1cccc2ncccc12 (stereo not shown) [Example 40] is ____.
*A* 259

====

System: Adriamycin resistant strain 2780 AD cells of human ovarian cancer A2780 cells
Experiment: Potentiating effect on incorporation of 3H-vincristine into adriamycin-resistant cancer cells
Type: cell-based
Conditions: Homo sapiens, 2780AD, 2 h, compound 1 μg/ml, 20 nM 3H-vincristine, control = 100, read-out: 3H-vincristine accumulation
measured.attribute: activity at 1 µg/mL (%)
Report only the number, with the unit % understood.

*Q* activity at 1 µg/mL of CN(CCN(C)C1c2ccccc2CCc2ccccc21)CC(O)COc1cccc2ncccc12 (stereo not shown) [Example 63] on Adriamycin resistant strain 2780 AD cells of human ovarian cancer A2780 cells?
*A* 773

*Q* activity at 1 µg/mL of Cc1cc(C(F)(F)F)nc2cccc(OCC(O)CN3CCN(C(=O)C(c4ccccc4)c4ccccc4)CC3)c12 (stereo not shown) [Example 55] on Adriamycin resistant strain 2780 AD cells of human ovarian cancer A2780 cells?
*A* 452

*Q* activity at 1 µg/mL of Cc1cc(C)c2c(OCC(O)CN3CCN(C(c4ccccc4)c4ccccc4)CC3)cccc2n1 (stereo not shown) [Example 5] on Adriamycin resistant strain 2780 AD cells of human ovarian cancer A2780 cells?
*A* 732

*Q* activity at 1 µg/mL of CC(=O)OC(CN1CCN(C(c2ccccc2)c2ccccc2)CC1)CN(C(C)=O)c1cccc2ncccc12 (stereo not shown) [Example 39] on Adriamycin resistant strain 2780 AD cells of human ovarian cancer A2780 cells?
*A* 236

====

Field: activity at 1 µg/mL. Provide a value for each of the molecules that follow.
Test system: Adriamycin resistant strain 2780 AD cells of human ovarian cancer A2780 cells
Assay: Potentiating effect on incorporation of 3H-vincristine into adriamycin-resistant cancer cells
Assay type: cell-based
Conditions: Homo sapiens, 2780AD, 2 h, compound 1 μg/ml, 20 nM 3H-vincristine, control = 100, read-out: 3H-vincristine accumulation
Report only the number, with the unit % understood.

*Q* activity at 1 µg/mL of c1ccc(C(c2ccccc2)N2CCN(CCOc3cccc4ncccc34)CC2)cc1 on Adriamycin resistant strain 2780 AD cells of human ovarian cancer A2780 cells?
*A* 785

*Q* activity at 1 µg/mL of c1ccc(C(=C2CCN(CCCOc3cccc4ncccc34)CC2)c2ccccc2)cc1 on Adriamycin resistant strain 2780 AD cells of human ovarian cancer A2780 cells?
*A* 159

*Q* activity at 1 µg/mL of OC(COc1cccc2ncccc12)CN1CCC(C(c2ccccc2)c2ccccc2)CC1 (centres unmarked) on Adriamycin resistant strain 2780 AD cells of human ovarian cancer A2780 cells?
*A* 119

*Q* activity at 1 µg/mL of OC(COc1cccc2nc(Cl)ccc12)CN1CCN(C2c3ccccc3CCc3ccccc32)CC1 (centres unmarked) on Adriamycin resistant strain 2780 AD cells of human ovarian cancer A2780 cells?
*A* 743

*Q* activity at 1 µg/mL of OC(COc1cccc2cnccc12)CN1CCN(C(c2ccccc2)c2ccccc2)CC1 (centres unmarked) on Adriamycin resistant strain 2780 AD cells of human ovarian cancer A2780 cells?
*A* 531

*Q* activity at 1 µg/mL of Cc1cc(C(F)(F)F)nc2cccc(OCC(O)CN3CCN(C4c5ccccc5CCc5ccccc54)CC3)c12 (centres unmarked) on Adriamycin resistant strain 2780 AD cells of human ovarian cancer A2780 cells?
*A* 253

*Q* activity at 1 µg/mL of c1ccc2c(c1)CCc1ccccc1C2N1CCN(CCCOc2cccc3ncccc23)CC1 on Adriamycin resistant strain 2780 AD cells of human ovarian cancer A2780 cells?
*A* 957

*Q* activity at 1 µg/mL of CN(C(=O)CCN1CCN(C2c3ccccc3CCc3ccccc32)CC1)c1cccc2ncccc12 on Adriamycin resistant strain 2780 AD cells of human ovarian cancer A2780 cells?
*A* 378

*Q* activity at 1 µg/mL of OC(COc1cccc2ncncc12)CN1CCN(C(c2ccccc2)c2ccccc2)CC1 (centres unmarked) on Adriamycin resistant strain 2780 AD cells of human ovarian cancer A2780 cells?
*A* 534

*Q* activity at 1 µg/mL of OC(COc1cccc2cccnc12)CN1CCN(C(c2ccccc2)c2ccccc2)CC1 (centres unmarked) on Adriamycin resistant strain 2780 AD cells of human ovarian cancer A2780 cells?
*A* 213

*Q* activity at 1 µg/mL of COc1ccc(C(c2ccc(OC)cc2)N2CCN(CC(O)COc3cccc4ncccc34)CC2)cc1 (centres unmarked) on Adriamycin resistant strain 2780 AD cells of human ovarian cancer A2780 cells?
*A* 561

*Q* activity at 1 µg/mL of OC(COc1cccc2ccncc12)CN1CCN(C(c2ccccc2)c2ccccc2)CC1 (centres unmarked) on Adriamycin resistant strain 2780 AD cells of human ovarian cancer A2780 cells?
*A* 322

*Q* activity at 1 µg/mL of COc1ccc(OCC(O)CN2CCN(C(c3ccccc3)c3ccccc3)CC2)c2cccnc12 (centres unmarked) on Adriamycin resistant strain 2780 AD cells of human ovarian cancer A2780 cells?
*A* 858

*Q* activity at 1 µg/mL of Cc1cc(C)c2c(OCC(O)CN3CCN(C(=O)C(c4ccccc4)c4ccccc4)CC3)cccc2n1 (centres unmarked) on Adriamycin resistant strain 2780 AD cells of human ovarian cancer A2780 cells?
*A* 658

*Q* activity at 1 µg/mL of OC(COc1cccc2nc(Cl)ccc12)CN1CCC(C(O)(c2ccccc2)c2ccccc2)CC1 (centres unmarked) on Adriamycin resistant strain 2780 AD cells of human ovarian cancer A2780 cells?
*A* 374

*Q* activity at 1 µg/mL of COc1ccc2c(OCC(O)CN3CCN(C4c5ccccc5CCc5ccccc54)CC3)cccc2n1 (centres unmarked) on Adriamycin resistant strain 2780 AD cells of human ovarian cancer A2780 cells?
*A* 721

*Q* activity at 1 µg/mL of OC(COc1cccc2nccnc12)CN1CCN(C(c2ccccc2)c2ccccc2)CC1 (centres unmarked) on Adriamycin resistant strain 2780 AD cells of human ovarian cancer A2780 cells?
*A* 559
